Assay: Pharmacokinetics in ICR mice after intravenous and intragastric administration
Format: in vivo
Settings: male, ICR, mouse, plasma, iv, 2 mg/kg, ICR mice, IV 2 mg/kg, individual animal
measured_attribute: clearance (mL/min/kg)
Give just the number in mL/min/kg; leave the unit off.

Previously resolved entries follow.
COc1cc(OC)c(-c2nc3c(n2C(C)C)[C@@]2(C(=O)Nc4cc(Cl)ccc42)N(c2cccc(Cl)c2)C3=O)cn1
12.9
CCOc1cc(OC)c(-c2nc3c(n2C(C)C)[C@@]2(C(=O)Nc4cc(Cl)ccc42)N(c2cc(Cl)ccc2C)C3=O)cn1
2.8

# evaluate next
Req: For the compound COc1cc(OC)c(-c2nc3c(n2C(C)C)[C@@]2(C(=O)Nc4cc(Cl)ccc42)N(c2cc(Cl)ccc2F)C3=O)cn1 , what clearance is on record?
Resp: 7.09

###

Test: Pharmacokinetics in ICR mice after intravenous and intragastric administration
Format: in vivo
Conditions: male, ICR, mouse, plasma, iv, 2 mg/kg, IV 2 mg/kg, ICR mice, Mean; read-out: MRT(0-t)
Readings of MRT last for the listed compounds
Give just the number in h; leave the unit off.

Previously resolved entries follow.
COc1cc(OC)c(-c2nc3c(n2C(C)C)[C@@]2(C(=O)Nc4cc(Cl)ccc42)N(c2cc(Cl)ccc2C)C3=O)cn1 [Example S-11]
1.55
COc1ccc(-c2nc3c(n2C(C)C)[C@@]2(C(=O)Nc4cc(Cl)ccc42)N(c2cc(Cl)ccc2C)C3=O)c(OC)c1 [Example S-9]
1.51

Req: For the compound COc1cc(N(C)C)ccc1-c1nc2c(n1C(C)C)[C@@]1(C(=O)Nc3cc(Cl)ccc31)N(c1cc(Cl)ccc1C)C2=O [Example S-23] , what MRT last is on record?
Resp: 1.61

Req: Same lookup for COc1ncc(-c2nc3c(n2C(C)C)[C@H](c2ccc(Cl)cc2)N(c2cc(Cl)cn(C)c2=O)C3=O)c(OC)n1 [HDM201, reference compound] , please.
Resp: 0.64

Req: Same lookup for COc1ncc(-c2nc3c(n2C(C)C)[C@@]2(C(=O)Nc4cc(Cl)ccc42)N(c2cc(Cl)ccc2C)C3=O)c(OC)n1 [Example S-2] , please.
Resp: 1.48

Req: Same lookup for COc1ncc(-c2nc3c(n2C(C)C)[C@@]2(C(=O)Nc4cc(Cl)ccc42)N(c2cccc(Cl)c2)C3=O)c(OC)n1 [Example S-1] , please.
Resp: 1.33

###

Readings of bioavailability for the listed molecules
Test: Pharmacokinetics in ICR mice after intravenous and intragastric administration
Assay type: in vivo
Conditions: male, ICR, mouse, plasma; oral intragastric administration 5 mg/kg; read-out: bioavailability
Give just the number in %; leave the unit off.

Previously resolved entries follow.
COc1ncc(-c2nc3c(n2C(C)C)[C@H](c2ccc(Cl)cc2)N(c2cc(Cl)cn(C)c2=O)C3=O)c(OC)n1 [HDM201, reference compound]
78.8
CCOc1cc(OC)c(-c2nc3c(n2C(C)C)[C@@]2(C(=O)Nc4cc(Cl)ccc42)N(c2cc(Cl)ccc2F)C3=O)cn1
105
COc1cc(OC)c(-c2nc3c(n2C(C)C)[C@@]2(C(=O)Nc4cc(Cl)ccc42)N(c2cc(Cl)ccc2C)C3=O)cn1
103

Req: For the molecule COc1ncc(-c2nc3c(n2C(C)C)[C@@]2(C(=O)Nc4cc(Cl)ccc42)N(c2cc(Cl)ccc2F)C3=O)c(OC)n1 , what bioavailability is on record?
Resp: 94.4

Req: Same lookup for COc1ncc(-c2nc3c(n2C(C)C)[C@@]2(C(=O)Nc4cc(Cl)ccc42)N(c2cc(Cl)ccc2C)C3=O)c(OC)n1 , please.
Resp: 102

Req: Same lookup for COc1ncc(-c2nc3c(n2C(C)C)[C@@]2(C(=O)Nc4cc(Cl)ccc42)N(c2cc(F)cc(Cl)c2)C3=O)c(OC)n1 , please.
Resp: 107

Req: Same lookup for CCOc1cc(OC)c(-c2nc3c(n2C(C)C)[C@@]2(C(=O)Nc4cc(Cl)ccc42)N(c2cc(Cl)ccc2C)C3=O)cn1 , please.
Resp: 107

###

Assay: Pharmacokinetics in ICR mice after intravenous and intragastric administration
Format: in vivo
Conditions: male, ICR, mouse, plasma, iv, 2 mg/kg, ICR mice, IV 2 mg/kg, individual animal; read-out: Cmax
measured_attribute: Cmax (µg/mL)
Give just the number in µg/mL; leave the unit off.

COc1cc(OC)c(-c2nc3c(n2C(C)C)[C@@]2(C(=O)Nc4cc(Cl)ccc42)N(c2cc(Cl)ccc2F)C3=O)cn1
2.98
CCOc1cc(OC)c(-c2nc3c(n2C(C)C)[C@@]2(C(=O)Nc4cc(Cl)ccc42)N(c2cc(Cl)ccc2F)C3=O)cn1
3.67
COc1ncc(-c2nc3c(n2C(C)C)[C@@]2(C(=O)Nc4cc(Cl)ccc42)N(c2cc(F)cc(Cl)c2)C3=O)c(OC)n1
0.766
COc1ccc(-c2nc3c(n2C(C)C)[C@@]2(C(=O)Nc4cc(Cl)ccc42)N(c2cc(Cl)cnc2C)C3=O)c(OC)c1
3.25

Req: For the compound COc1cc(OC(C)C)ncc1-c1nc2c(n1C(C)C)[C@@]1(C(=O)Nc3cc(Cl)ccc31)N(c1cc(Cl)ccc1C)C2=O , what Cmax is on record?
Resp: 5.98

Req: Same lookup for COc1ncc(-c2nc3c(n2C(C)C)[C@@]2(C(=O)Nc4cc(Cl)ccc42)N(c2cc(Cl)ccc2F)C3=O)c(OC)n1 , please.
Resp: 0.872

Req: Same lookup for COc1cc(C(C)C)ccc1-c1nc2c(n1C(C)C)[C@@]1(C(=O)Nc3cc(Cl)ccc31)N(c1cc(Cl)ccc1C)C2=O , please.
Resp: 2.45

Req: Same lookup for COc1cc(OC)c(-c2nc3c(n2C(C)C)[C@@]2(C(=O)Nc4cc(Cl)ccc42)N(c2cc(Cl)cnc2C)C3=O)cn1 , please.
Resp: 1.78

Req: Same lookup for COc1cc(C2CC2)ncc1-c1nc2c(n1C(C)C)[C@@]1(C(=O)Nc3cc(Cl)ccc31)N(c1cc(Cl)ccc1C)C2=O , please.
Resp: 1.33

Req: Same lookup for CCOc1cc(OC)c(-c2nc3c(n2C(C)C)[C@@]2(C(=O)Nc4cc(Cl)ccc42)N(c2cc(Cl)ccc2C)C3=O)cn1 , please.
Resp: 4.63

###

Assay: Pharmacokinetics in ICR mice after intravenous and intragastric administration
Assay type: in vivo
Conditions: male, ICR, mouse, plasma, po, 5 mg/kg, PO 5 mg/kg, ICR mice, individual animal; read-out: MRT(0-t)
measured_attribute: MRT last (h)
Give just the number in h; leave the unit off.

COc1ncc(-c2nc3c(n2C(C)C)[C@@]2(C(=O)Nc4cc(Cl)ccc42)N(c2cc(Cl)ccc2C)C3=O)c(OC)n1
2.89
COc1cc(N(C)C)ccc1-c1nc2c(n1C(C)C)[C@@]1(C(=O)Nc3cc(Cl)ccc31)N(c1cc(Cl)ccc1C)C2=O
2.35
COc1cc(OC)c(-c2nc3c(n2C(C)C)[C@@]2(C(=O)Nc4cc(Cl)ccc42)N(c2cc(Cl)ccc2C)C3=O)cn1
2.96

Req: For the compound COc1ncc(-c2nc3c(n2C(C)C)[C@@]2(C(=O)Nc4cc(Cl)ccc42)N(c2cccc(Cl)c2)C3=O)c(OC)n1 , what MRT last is on record?
Resp: 1.94

Req: Same lookup for COc1ncc(-c2nc3c(n2C(C)C)[C@H](c2ccc(Cl)cc2)N(c2cc(Cl)cn(C)c2=O)C3=O)c(OC)n1 [HDM201, reference compound] , please.
Resp: 1.94

Req: Same lookup for COc1ccc(-c2nc3c(n2C(C)C)[C@@]2(C(=O)Nc4cc(Cl)ccc42)N(c2cc(Cl)ccc2C)C3=O)c(OC)c1 , please.
Resp: 2.65

###

Assay: Pharmacokinetics in ICR mice after intravenous and intragastric administration
Format: in vivo
Conditions: male, ICR, mouse, plasma, po, 5 mg/kg, ICR mice, PO 5 mg/kg, mean of 3 animals; read-out: t1/2 (converted)
Readings of half-life for the listed compounds

Previously resolved entries follow.
CCOc1cc(OC)c(-c2nc3c(n2C(C)C)[C@@]2(C(=O)Nc4cc(Cl)ccc42)N(c2cc(Cl)ccc2C)C3=O)cn1 [Example S-72]
1.72 h
COc1cc(OC)c(-c2nc3c(n2C(C)C)[C@@]2(C(=O)Nc4cc(Cl)ccc42)N(c2cc(Cl)cnc2C)C3=O)cn1 [Example S-131]
1.26 h
COc1ncc(-c2nc3c(n2C(C)C)[C@@]2(C(=O)Nc4cc(Cl)ccc42)N(c2cc(Cl)ccc2F)C3=O)c(OC)n1 [Example S-44]
2 h

Req: For the compound COc1cc(C(F)(F)F)ncc1-c1nc2c(n1C(C)C)[C@@]1(C(=O)Nc3cc(Cl)ccc31)N(c1cc(Cl)ccc1C)C2=O [Example S-138] , what half-life is on record?
Resp: 2.72 h

Req: Same lookup for COc1cc(C2CC2)ncc1-c1nc2c(n1C(C)C)[C@@]1(C(=O)Nc3cc(Cl)ccc31)N(c1cc(Cl)ccc1C)C2=O [Example S-103] , please.
Resp: 1.93 h
